# Target System: human IL-17A/F heterodimer (human, UniProt Q16552 24-155; Q96PD4 31-163, limits assumed, biotinylated with Sulfo-NHS-LC-Biotin in the AlphaScreen assays only)
# Sequence (Q16552 24-155 limits assumed, chain 1 of 2): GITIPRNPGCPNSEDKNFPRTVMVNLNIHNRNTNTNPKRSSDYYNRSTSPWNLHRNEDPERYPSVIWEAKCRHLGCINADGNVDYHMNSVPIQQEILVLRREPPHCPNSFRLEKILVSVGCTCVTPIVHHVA
# Sequence (Q96PD4 31-163 limits assumed, chain 2 of 2): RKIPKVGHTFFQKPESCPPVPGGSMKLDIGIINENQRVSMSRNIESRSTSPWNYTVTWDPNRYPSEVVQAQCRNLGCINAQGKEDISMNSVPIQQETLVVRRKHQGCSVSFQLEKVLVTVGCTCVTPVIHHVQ
# Experimental Details: cell-based or functional assay
Each entry below lists one item and its recorded IL-17A/F-induced IL-6 production in HT-1080 cells, Emax value.
Attribute Measured: IL-17A/F-induced IL-6 production in HT-1080 cells, Emax (%)

{"columns": ["Binder", "Obs Value"],
 "data": [
  ["02A10 (VHH, Class 2 Nanobody (anti-IL-17A and IL-17A/F); not shown: c-myc, His6 tag) VHH: EVQLVESGGGLVQPGGSLRLSCAASGFALGYYAIGWFRQAPGKEREGVSCDSSSDGRTYYGDSVKGRFTISTDSAKNTVYLQMNSLKPEDTAVYYCATCTDFEYDYWGQGTQVTVSS", 98.5],
  ["11A06 (VHH, Class 2 Nanobody (anti-IL-17A and IL-17A/F); not shown: c-myc, His6 tag) VHH: EVQLVESGGGLVQPGESLRLSCKASGFSLDYYALGWFRQAPGKEREGISCITSSDASAYYTDSVKGRFTISRDNSKNTVYLQMNSLKTEDTAIYYCAAALLTCSSYYDAYTYWGQGTQVTVSS", 106],
  ["04B10 (VHH, Class 2 Nanobody (anti-IL-17A and IL-17A/F); not shown: c-myc, His6 tag) VHH: EVQLVESGGGLVQAGGSQSLSCVASGTIVNINVMGWYRQAPGKQRELVALITSGGGTTYGDSVKGRFTISIDNAKNTVILQMNSLEAEDTAVYYCAAEIGYYSGGTYFSSEAHWGQGTQVTVSS", 97],
  ["04G01 (VHH, Class 2 Nanobody (anti-IL-17A and IL-17A/F); also called IL17MS04G01; not shown: c-myc, His6 tag) VHH: EVQLVESGGGLVQAGGSQRLSCTASGTIVNIHVMGWYRQAPGKQRELVALIFSGGSADYADSVKGRFTISRDNAKNTVYLEMNSLKAEDTAVYYCAAEIGYYSGGTYYSSEAHWGQGTQVTVSS", 104]
]}

Just for reference, patent US20210130452A1 is where these values come from.
